target_or_test_system: human SGLT2 (Homo sapiens)
Construct: expressed in transfected cells
assay_details: SGLT2 in vitro assay: Na-dependent 14C-AMG uptake in CHO-K1 cells stably expressing human SGLT2
Format: cell-based
assay_context: @ 0.3 μM; CHO-K1 cells stably expressing human SGLT2; 14C-AMG uptake; read-out: SGLT2 % Inh @ 0.3 μM
Protocol: Biological Example 1: SGLT1 and SGLT2 In Vitro Assays The ability of the compounds of formula (I) of the present invention to treat an SGLT-mediated condition was determined using the following procedures: […] Inhibition of SGLT1 and SGLT2 activity was assessed in CHO K1 cells stably expressing either human SGLT1 or SGLT2, using the SGLT specific glucose analog methyl-glucopyranoside (Sigma Catalog No. M-9376). […] Plates were counted in a TopCount (Packard, Meriden, Conn.) […]
measurement_kind: inhibition at 0.3 µM (%)

smiles_str	inhibition at 0.3 µM, %
COc1cc(O)c([C@@H]2O[C@H](CO)C(F)(F)[C@H](O)[C@H]2O)cc1Cc1ccc(C2CC2)cc1	85.5
CCc1cc(O)c([C@@H]2OC3(CC3)C(F)(F)[C@H](O)[C@H]2O)cc1Cc1ccc2c(c1)OCCO2	87.8
CCOc1ccc(Cc2cc([C@@H]3O[C@H](CO)C(F)(F)[C@H](O)[C@H]3O)c(O)cc2Cl)cc1	73
CCc1ccc(Cc2cc([C@@H]3O[C@H](CO)C(F)(F)[C@H](O)[C@H]3O)c(O)cc2Cl)cc1	89.2
CCc1cc(OC)c([C@@H]2O[C@H](CO)C(F)(F)[C@H](O)[C@H]2O)cc1Cc1ccc(OC)cc1	87.7
COc1cc(O)c([C@@H]2O[C@H](CO)C(F)(F)[C@H](O)[C@H]2O)cc1Cc1ccc2c(c1)CCO2	79.6
COc1cccc(Cc2cc([C@@H]3O[C@H](CO)C(F)(F)[C@H](O)[C@H]3O)c(O)cc2Cl)c1	89.7
CCc1ccc(Cc2cc([C@@H]3O[C@H](CO)C(F)(F)[C@H](O)[C@H]3O)c(O)cc2OC)cc1	64.4
COc1cc(C)c(Cc2cc3ccccc3s2)cc1[C@@H]1O[C@H](CO)C(F)(F)[C@H](O)[C@H]1O	76.3
Cc1cc(O)c([C@@H]2O[C@H](CO)C(F)(F)[C@H](O)[C@H]2O)cc1Cc1ccc(OC(F)(F)F)cc1	84.7
COc1cc(Cl)c(Cc2ccc(C)cc2)cc1[C@@H]1O[C@H](CO)C(F)(F)[C@H](O)[C@H]1O	90.6
CCc1csc(Cc2cc([C@@H]3O[C@H](CO)C(F)(F)[C@H](O)[C@H]3O)c(O)cc2C)c1	83.6
CCc1ccc(Cc2cc([C@@H]3O[C@H](CO)C(F)(F)[C@H](O)[C@H]3O)c(OC)cc2OC)cc1	88.1
CCc1cc(O)c([C@@H]2O[C@H](CO)C(F)(F)[C@H](O)[C@H]2O)cc1Cc1ccc(OCF)cc1	82.4

---

target_or_test_system: human SGLT1 (Homo sapiens)
Construct: expressed in transfected cells
assay_details: SGLT1 in vitro assay: Na-dependent 14C-AMG uptake in CHO-K1 cells stably expressing human SGLT1
Format: cell-based
assay_context: CHO-K1 cells stably expressing human SGLT1; 14C-AMG uptake; compounds of formula (I) where R0 is fluoro
measurement_kind: IC50 (nM)

molecule	units_label	IC50
Cc1cc(OCC#N)c([C@@H]2O[C@H](CO)C(F)(F)[C@H](O)[C@H]2O)cc1Cc1cc2ccccc2s1 [Compound 40]	nM	176
COc1ccc(Cc2cc([C@@H]3O[C@H](CO)C(F)(F)[C@H](O)[C@H]3O)c(O)cc2C)cc1 [Compound 108]	nM	70
CCc1ccc(Cc2cc([C@@H]3O[C@H](CO)C(F)(F)[C@H](O)[C@H]3O)c(O)cc2OC)cc1 [Compound 145]	nM	83

(P) Cc1cc(O)c([C@@H]2O[C@H](CO)C(F)(F)[C@H](O)[C@H]2O)cc1Cc1ccc(Cl)s1 [Compound 110]
(Q) COc1cc(Cl)c(Cc2ccc(C)s2)cc1[C@@H]1O[C@H](CO)C(F)(F)[C@H](O)[C@H]1O [Compound 165]
(R) COc1cc(O)c([C@@H]2O[C@H](CO)C(F)(F)[C@H](O)[C@H]2O)cc1Cc1cc2ccccc2s1 [Compound 31]
(S) CCc1cc(O)c([C@@H]2OC3(CC3)C(F)(F)[C@H](O)[C@H]2O)cc1Cc1ccc2c(c1)OCCO2 [Compound 94]
Arrange by IC50, high to low. Answer format: the labels, in the requested order.
R, P, S, Q
(R: 165 nM, P: 95 nM, S: 66 nM, Q: 40 nM)

---

target_or_test_system: human SGLT1 (Homo sapiens, UniProt P13866)
Construct: expressed in transfected cells
Sequence (P13866 1-664): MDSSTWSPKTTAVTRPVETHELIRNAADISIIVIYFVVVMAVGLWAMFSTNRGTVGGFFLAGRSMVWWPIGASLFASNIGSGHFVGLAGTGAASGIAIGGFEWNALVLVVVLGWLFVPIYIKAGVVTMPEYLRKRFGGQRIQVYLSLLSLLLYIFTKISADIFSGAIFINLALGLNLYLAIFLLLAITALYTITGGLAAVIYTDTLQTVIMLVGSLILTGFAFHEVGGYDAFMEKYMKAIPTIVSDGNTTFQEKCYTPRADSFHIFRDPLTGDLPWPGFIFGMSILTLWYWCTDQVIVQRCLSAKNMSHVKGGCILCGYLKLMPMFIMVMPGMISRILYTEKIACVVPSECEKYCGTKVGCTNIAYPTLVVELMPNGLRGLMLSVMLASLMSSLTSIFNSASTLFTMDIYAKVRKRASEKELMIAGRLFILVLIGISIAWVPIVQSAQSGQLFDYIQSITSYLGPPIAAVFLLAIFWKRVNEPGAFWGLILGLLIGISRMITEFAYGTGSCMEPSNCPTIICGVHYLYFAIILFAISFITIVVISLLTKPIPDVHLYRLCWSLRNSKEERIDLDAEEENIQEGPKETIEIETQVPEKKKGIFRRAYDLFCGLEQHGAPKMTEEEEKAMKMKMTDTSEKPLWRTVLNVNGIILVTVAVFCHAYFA
assay_details: SGLT1 in vitro assay: Na-dependent 14C-AMG uptake in CHO-K1 cells stably expressing human SGLT1
Assay type: cell-based
assay_context: CHO-K1 cells stably expressing human SGLT1; 14C-AMG uptake; compounds of formula (I) where R0 is fluoro
pIC50: −log10 of the molar value.
measurement_kind: pIC50

compound	pIC50
CCc1ccc(Cc2cc([C@@H]3O[C@H](CO)C(F)(F)[C@H](O)[C@H]3O)c(O)cc2CC)cc1 [Compound 128]	6.92

(a) Cc1cc(O)c([C@@H]2O[C@H](CO)C(F)(F)[C@H](O)[C@H]2O)cc1Cc1cc2cc(F)ccc2s1 [Compound 52]
(b) OC[C@H]1O[C@@H](c2cc(Cc3ccc(OCF)cc3)c(Cl)cc2O)[C@H](O)[C@@H](O)C1(F)F [Compound 116]
(c) CCc1csc(Cc2cc([C@@H]3O[C@H](CO)C(F)(F)[C@H](O)[C@H]3O)c(O)cc2C)c1 [Compound 182]
Order field: pIC50 | Direction: descending (largest first) As an answer, provide the labels arranged in the order called for.
c, b, a
(c: 7.40, b: 6.91, a: 6.64)

---

target_or_test_system: human SGLT2 (Homo sapiens, UniProt P31639)
Construct: expressed in transfected cells
Sequence (P31639 1-672): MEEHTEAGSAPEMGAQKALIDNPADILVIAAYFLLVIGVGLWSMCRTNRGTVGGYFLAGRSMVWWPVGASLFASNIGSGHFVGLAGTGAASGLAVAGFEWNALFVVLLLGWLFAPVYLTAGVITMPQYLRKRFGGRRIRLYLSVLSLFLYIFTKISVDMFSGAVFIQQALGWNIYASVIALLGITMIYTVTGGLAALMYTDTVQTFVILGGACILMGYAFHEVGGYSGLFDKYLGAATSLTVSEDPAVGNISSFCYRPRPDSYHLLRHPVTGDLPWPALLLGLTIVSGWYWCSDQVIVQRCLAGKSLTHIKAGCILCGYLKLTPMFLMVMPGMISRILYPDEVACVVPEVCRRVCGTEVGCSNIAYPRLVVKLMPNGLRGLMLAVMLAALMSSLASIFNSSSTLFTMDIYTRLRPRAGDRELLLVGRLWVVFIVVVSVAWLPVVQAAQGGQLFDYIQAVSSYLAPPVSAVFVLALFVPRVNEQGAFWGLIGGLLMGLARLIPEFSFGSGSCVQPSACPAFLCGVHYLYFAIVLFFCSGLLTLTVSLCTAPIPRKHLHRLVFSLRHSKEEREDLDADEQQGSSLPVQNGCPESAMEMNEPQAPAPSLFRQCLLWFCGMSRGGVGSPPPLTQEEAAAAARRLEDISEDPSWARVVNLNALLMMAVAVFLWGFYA
assay_details: SGLT2 in vitro assay: Na-dependent 14C-AMG uptake in CHO-K1 cells stably expressing human SGLT2
Type: cell-based
assay_context: @ 0.3 μM; CHO-K1 cells stably expressing human SGLT2; 14C-AMG uptake
Method: Biological Example 1: SGLT1 and SGLT2 In Vitro Assays The ability of the compounds of formula (I) of the present invention to treat an SGLT-mediated condition was determined using the following procedures: […] Inhibition of SGLT1 and SGLT2 activity was assessed in CHO K1 cells stably expressing either human SGLT1 or SGLT2, using the SGLT specific glucose analog methyl-glucopyranoside (Sigma Catalog No. M-9376). […] Plates were counted in a TopCount (Packard, Meriden, Conn.) […]
measurement_kind: SGLT2 % Inh @ 0.3 μM (%)

molecule	SGLT2 % Inh @ 0.3 μM / %
Cc1cc(O)c([C@@H]2O[C@H](CO)C(F)(F)[C@H](O)[C@H]2O)cc1Cc1cc2c(s1)CCN(C(=O)C1CCCC1)C2 [Compound 69]	67.1
N#Cc1cc(O)c([C@@H]2O[C@H](CO)C(F)(F)[C@H](O)[C@H]2O)cc1Cc1ccc(C2CC2)cc1 [Compound 173]	83.3
OC[C@H]1O[C@@H](c2cc(Cc3ccc4c(c3)CCCO4)c(Cl)c3c2OCC3)[C@H](O)[C@@H](O)C1(F)F [Compound 126]	87.1
CCc1ccc(Cc2cc([C@@H]3O[C@H](CO)C(F)(F)[C@H](O)[C@H]3O)c(O)cc2C2CC2)cc1 [Compound 137]	52.5
Cc1cc(O)c([C@@H]2O[C@H](CO)C(F)(F)[C@H](O)[C@H]2O)cc1Cc1cc2c(s1)CCN(C(=O)c1nccs1)C2 [Compound 80]	82.1

(1) COc1cc(OC)c([C@@H]2O[C@H](CO)C(F)(F)[C@H](O)[C@H]2O)cc1Cc1ccc(OCF)cc1 [Compound 147]
(2) Cc1c(Cc2ccc3c(c2)CCCO3)cc([C@@H]2O[C@H](CO)C(F)(F)[C@H](O)[C@H]2O)c2c1CCO2 [Compound 103]
SGLT2 % Inh @ 0.3 μM comparison. Which is larger, 1 or 2 ? Output the label that corresponds to your choice.
2
